Data provenance is a melting point compilation (Tetko et al.; mined from patent text by program, amines drawn as free bases though some values may be those of a salt).

Let's look at some molecules and their measured melting point.

1. COc1cc(OCCOc2ccccc2)c2c(=O)[nH]c(-c3cc(C)nc(C)c3)nc2c1: 172 to 173 °C

Task item: Returns the measured melting point for the input molecule. Input: COC(=O)N1CCc2cc(S(=O)(=O)Cl)ccc21
Reply: 113 to 114 °C

Task item: Same lookup for CC(C(=O)O)c1ccc(-c2ccc(Br)cc2F)cc1 (stereo not given) , please.
Reply: 137 to 139 °C

Task item: Same lookup for CCNC(=O)c1ccc(-c2cnc3c(c2)N(Cc2ccccc2)C(=O)CN3)cc1 , please.
Reply: 195 °C

Task item: Same lookup for CCOCCn1c(CN2CCN(CC#N)CC2)nc2cccnc21 , please.
Reply: 80.7 °C

Task item: Same lookup for O=C(O)c1coc(-c2ccc(Cl)c(C(=O)NCC34CC5CC(CC(C5)C3)C4)c2)n1 , please.
Reply: 254 to 257 °C
